EXPERIMENTAL_TARGET: Epidermal growth factor receptor (Homo sapiens)
EXPERIMENT_DESCRIPTION: EGFR binders on small-molecule microarrays, primary screen, biochemical, small-molecule microarray, 635 nm fluorescence (AID 1104);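 note: score merges 667 nm emission intensity with spot signal to noise over triplicate slides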
MEASUREMENT_CONDITIONS: EGFR binding, higher = more signal
REPORTED_PROPERTY: composite z-score
// return just the number, without any unit appended

So what does the record say about composite z-score for `CC=CC1=C(CO)[C@H](O)[C@H]2O[C@H]2[C@H]1O` ?
0.393

So what does the record say about composite z-score for `Cc1ccc(S(=O)(=O)N[C@@H]2COC(=O)[C@H](C)COC(=O)CC=C[C@H]2C)cc1` ?
0.751

So what does the record say about composite z-score for `C=CCN1C(=O)[C@]2(O[C@H](CCn3cc(CCO)nn3)[C@@H]([Si](C)(C)c3ccc(OC)cc3)[C@@H]2C)c2cc(N3CCOC3=O)ccc21` ?
-0.82

So what does the record say about composite z-score for `CC(C)=NOCc1cccc(-c2cc(-c3ccccc3)no2)c1` ?
-0.137

So what does the record say about composite z-score for `C/C=C\[C@@H](NCc1ccccc1Br)[C@@H](O)Cc1ccccc1` ?
-1.37

So what does the record say about composite z-score for `O=C1[C@H]2[C@H]3[C@H](O)[C@H](O)CC(=NOCc4ccccc4)[C@@H]3CC[C@H]2C(=O)N1Cc1ccccc1` ?
0.453

So what does the record say about composite z-score for CCCCCN1CC=CC23O[C@@H]4C=CCOC(=O)[C@@H]4[C@H]2C(=O)N(CCCCCCO)[C@@H]3C1=O (some centres undefined) ?
-1.31

So what does the record say about composite z-score for `O=C1O[C@@H](c2ccccc2)[C@@H](c2ccccc2)N2[C@@H](c3ccccc3OCCO)[C@]3(C(=O)Nc4ccc(C#CCCO)cc43)[C@@H](C(=O)O)[C@H]12` ?
-0.0589

So what does the record say about composite z-score for `COC(=O)[C@H](C)NC(=O)[C@@H](C)CO` ?
0.499

----------
EXPERIMENT_DESCRIPTION: binders from COS7 lysate, DM2A8 probe, primary screen, torsin A project, cell lysate, small-molecule microarray, fluorescence 635/667 (AID 1065)
MEASUREMENT_CONDITIONS: higher = more signal, COS7 lysate expressing mutant human TOR1A
The label depends only on composite z-score: satisfied if it is at least 0.8, not satisfied if it is smaller.

Does `CCCC[C@H]1OB(O)C[C@H]2C1=C(C)C[C@H]1C(=O)N(C)C(=O)[C@H]12` have a reported composite z-score of at least 0.8?
not satisfied

Does `COCCOC(=O)N1C(=O)[C@@]2(c3ccccc31)[C@H](C(N)=O)[C@H]1C(=O)O[C@H](c3ccccc3)[C@H](c3ccccc3)N1[C@@H]2c1ccccc1OCCO` have a reported composite z-score of at least 0.8?
satisfied

Does CCOC(=O)[C@H](CC(C)C)NC(=O)CCC1CC(OC(=O)NCc2cccc3ccccc23)CC2(CCCC(COC(=O)NCCc3ccccc3OC)O2)O1 (stereo partly specified) have a reported composite z-score of at least 0.8?
not satisfied

Does `COc1ccc([Si](C)(C)[C@@H]2[C@@H](CCO)O[C@]3(C(=O)N(Cc4ccc(NC(C)=O)cc4)c4ccccc43)[C@H]2C)cc1` have a reported composite z-score of at least 0.8?
satisfied

Does CC(CCN1CCCCc2nc(C)c(C)cc21)=NOC(C)CN1CCCCc2nc(C)c(C)cc21 (stereo unspecified) have a reported composite z-score of at least 0.8?
satisfied

Does `COCC1=C2[C@@H](CCc3ccccc3)OB(O)C[C@@H]2n2c(=O)n(-c3ccccc3)c(=O)n2C1` have a reported composite z-score of at least 0.8?
not satisfied

Does `CC(C)C[C@@H]1NC(=O)[C@H]2C[C@@H](C(=O)O)[C@@H](c3ccc(O)cc3)N2C1=O` have a reported composite z-score of at least 0.8?
satisfied

Does `CO[C@H]1COC(=O)CC=C[C@H](C)[C@@H](NS(=O)(=O)c2ccc(C)cc2)COC(=O)CC=C[C@@H]1C` have a reported composite z-score of at least 0.8?
satisfied

Does `C=CC[C@@H]1C=C[C@H](ON=C[C@@H](OC)[C@H](C)C=CCC(=O)OC)[C@@H](CO)O1` have a reported composite z-score of at least 0.8?
satisfied

Does `C[C@@H](c1ccccc1)N1C(=O)[C@H]2[C@H]3[C@H](O)[C@H](O)CC(=NOC[C@@H](O)COCc4ccco4)[C@@H]3CC[C@H]2C1=O` have a reported composite z-score of at least 0.8?
not satisfied

Does `C#CCCCON=C1C[C@@H](O)[C@@H](O)[C@@H]2[C@@H]3C(=O)N(Cc4ccccc4)C(=O)[C@@H]3CC[C@H]12` have a reported composite z-score of at least 0.8?
not satisfied

Does `CCc1cc2c(nc1CC)CCN(CCC(C)=NOC[C@@H](O)[C@H]1O[C@@H]3OC(C)(C)O[C@@H]3[C@H]1O)C2` have a reported composite z-score of at least 0.8?
not satisfied

Does `CCCCc1nc2c(c3c1C[C@H](C)OC3)CN(CCC(C)C)CC2` have a reported composite z-score of at least 0.8?
not satisfied

Does `C=C(/C(=C/C[C@H](OC(=O)c1ccncc1)c1ccc(OCCO)cc1)c1cnc2ccccc2c1)C(C)C` have a reported composite z-score of at least 0.8?
not satisfied

Does COC(=O)[C@H](C)NC(=O)CCC1CC(OC(=O)NCc2ccc3c(c2)OCO3)CC2(CCCC(COC(=O)NCCOc3ccccc3)O2)O1 (stereo partly specified) have a reported composite z-score of at least 0.8?
satisfied

Does `COc1ccc(-c2nc3c(c4c2C[C@H](C)OC4)CN(CCC(C)C)CC3)cc1` have a reported composite z-score of at least 0.8?
not satisfied

The reported measurements were obtained from PubChem BioAssay.
